# EXPERIMENTAL_PROTOCOL: Pharmacokinetics in CD1 mice
# Assay type: in vivo, CD-1 mice
# DETAILS: male, CD-1, mouse, plasma; 5.5 mg/kg IV, n=3; read-out: volume of distribution (Vdss)
Starred links: 1 amine or outer side, 2 acyl side, 3 side chain; linkers in the order of their positions; H or OH if unused. Positions of bridges follow the written chain, without caps; N, C: chain ends. Non-standard residues stand in square brackets, D forms with d. Chains are numbered I, II in the order given. X1 = O=C(CCOCCOCCOCCN(CCOCCOCCOCCn1cc(CCC(=O)[*:2])nn1)CCOCCOCCOCCn1cc(CCC(=O)[*:3])nn1)[*:1]; TATA = O=C(CC[*:1])N1CN(C(=O)CC[*:2])CN(C(=O)CC[*:3])C1; d1Nal = N[C@H](Cc1cccc2ccccc12)C(=O)O; Hyp = O=C(O)[C@@H]1C[C@@H](O)CN1; hArg = N=C(N)NCCCC[C@H](N)C(=O)O; tBuAla = CC(C)(C)C[C@H](N)C(=O)O; Nle = CCCC[C@H](N)C(=O)O
QUANTITY: Vd

Given the substance I: A[hArg]DC[Hyp]LVNPLCLEP[d1Nal]WTC-NH2 / II: Ac-C[tBuAla]PE[dK]PYCFADPY[Nle]CA-NH2 / III: Ac-C[tBuAla]PE[dK]PYCFADPY[Nle]CA-NH2 (linker I:4-I:11-I:18, II:1-II:8-II:15, III:1-III:8-III:15 via TATA; linker I:N-II:5-III:5 via X1) [BCY13272] , what is its reported Vd? 1.1 L/kg

---

# TEST_SYSTEM: CD137 (Homo sapiens, UniProt Q07011)
# Sequence (Q07011 24-255): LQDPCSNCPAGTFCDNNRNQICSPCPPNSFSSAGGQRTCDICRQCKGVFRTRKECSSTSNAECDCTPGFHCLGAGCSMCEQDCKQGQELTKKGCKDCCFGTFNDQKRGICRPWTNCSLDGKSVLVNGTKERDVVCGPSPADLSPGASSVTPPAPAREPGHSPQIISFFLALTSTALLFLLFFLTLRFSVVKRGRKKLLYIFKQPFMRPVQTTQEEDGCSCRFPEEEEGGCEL
# EXPERIMENTAL_PROTOCOL: CD137 reporter assay (Promega, Jurkat cells) in co-culture with EphA2-expressing tumor cells (A549, PC3, HT29)
# Format: cell-based
# Design: host or cells: Jurkat reporter cells
# DETAILS: CD137 reporter coculture assay with PC3 tumor cells
Starred links: 1 amine or outer side, 2 acyl side, 3 side chain; linkers in the order of their positions; H or OH if unused. Positions of bridges follow the written chain, without caps; N, C: chain ends. Non-standard residues stand in square brackets, D forms with d. Chains are numbered I, II in the order given. ξ: configuration not given here. X4 = O=C(CCOCCOCCOCCOCCOCCn1cc(CCC(=O)[*:2])nn1)NCCCN(CCCNC(=O)CCOCCOCCOCCOCCOCCn1cc(CCC(=O)[*:3])nn1)CC(=O)[*:1]; X1 = O=C(CCOCCOCCOCCN(CCOCCOCCOCCn1cc(CCC(=O)[*:2])nn1)CCOCCOCCOCCn1cc(CCC(=O)[*:3])nn1)[*:1]; X2 = O=C(CCSCCC(=O)[*:1])N1CN(C(=O)CC[*:2])CN(C(=O)CC[*:3])C1; TATA = O=C(CC[*:1])N1CN(C(=O)CC[*:2])CN(C(=O)CC[*:3])C1; Dip = N[C@H](C(=O)O)C(c1ccccc1)c1ccccc1; Hyp = O=C(O)[C@@H]1C[C@@H](O)CN1; hArg = N=C(N)NCCCC[C@H](N)C(=O)O; tBuAla = CC(C)(C)C[C@H](N)C(=O)O; Cba = N[C@@H](CC1CCC1)C(=O)O; Nle = CCCC[C@H](N)C(=O)O; ξP = O=C(O)C1CCCN1; Mpa = O=C(O)CCS
QUANTITY: Emax (fold induction over background)

Which Emax (fold induction over background) reading was recorded for the substance I: C[Hyp]LVNPLCL[Dip]P[dD]WTC-NH2 / II: [Mpa][tBuAla]PE[dK]PYCFADPY[Nle]C-NH2 / III: [tBuAla]PE[dK]PYCFADPY[Nle]C-NH2 (linker I:1-I:8-I:15, II:1-II:8-II:15 via TATA; linker I:N-II:5-III:4 via X1; linker III:N-III:7-III:14 via X2) [BCY13343] ? 44.00

# get_value(readout='Emax (fold induction over background)', item= I: C[Hyp]LVNPLCLEP[dD]WTC[dA]-NH2 / II: Ac-C[tBuAla]PE[dK]PYCFADPY[Nle]CA-NH2 / III: Ac-C[tBuAla]PE[dK]PYCFADPY[Nle]CA-NH2 (linker I:1-I:8-I:15, II:1-II:8-II:15, III:1-III:8-III:15 via TATA; linker I:N-II:5-III:5 via X1) [BCY13049] ) 46.03

Emax (fold induction over background) for I: A[hArg]DC[Hyp][Cba]VN[ξP]LCLHP[dD]W[hArg]C-NH2 / II: Ac-C[tBuAla]PE[dK]PYCFADPY[Nle]CA-NH2 / III: Ac-C[tBuAla]PE[dK]PYCFADPY[Nle]CA-NH2 (linker I:4-I:11-I:18, II:1-II:8-II:15, III:1-III:8-III:15 via TATA; linker I:N-II:5-III:5 via X1) [BCY13050] ? 42.46

I'd like to know its Emax (fold induction over background). The substance in question is I: A[hArg]DC[Hyp]LVNPLCLHP[dD]W[hArg]C-NH2 / II: Ac-C[tBuAla]PE[dK]PYCFADPY[Nle]CA-NH2 / III: Ac-C[tBuAla]PE[dK]PYCFADPY[Nle]CA-NH2 (linker I:4-I:11-I:18, II:1-II:8-II:15, III:1-III:8-III:15 via TATA; linker I:N-II:5-III:5 via X4) [BCY12979] 71.60

Form field: reported Emax (fold induction over background) of I: C[Hyp][Cba]VNPLCL[Dip]P[dD]WTC[dA]-NH2 / II: Ac-C[tBuAla]PE[dK]PYCFADPY[Nle]CA-NH2 / III: Ac-C[tBuAla]PE[dK]PYCFADPY[Nle]CA-NH2 (linker I:1-I:8-I:15, II:1-II:8-II:15, III:1-III:8-III:15 via TATA; linker I:N-II:5-III:5 via X1) [BCY13053] 40.33

Recorded Emax (fold induction over background) of I: A[hArg]DC[Hyp]LVNPLCLEP[dD]WTC[dA]-NH2 / II: Ac-C[tBuAla]PE[dK]PYCFADPY[Nle]CA-NH2 / III: Ac-C[tBuAla]PE[dK]PYCFADPY[Nle]CA-NH2 (linker I:4-I:11-I:18, II:1-II:8-II:15, III:1-III:8-III:15 via TATA; linker I:N-II:5-III:5 via X1) [BCY13045] , please. 49.87

Entry source: patent US20230129258A1
